Origin of measurements: patent US20220146526A1

# protocol-description: GC/MS of serum sample: time from blood collection to centrifugation (Table G)
# Format: physicochemical, human
# reported-conditions: detection intensity relative to 1 at 15 minutes, blood collection to centrifugation, after 4 hours
value-type: Rate of increase or decrease
Keep the answer to the number alone.

Data request: // Rate of increase or decrease lookup, key: OC[C@H]1O[C@@](CO)(O[C@H]2O[C@H](CO)[C@@H](O)[C@H](O)[C@H]2O)[C@@H](O)[C@@H]1O
Data returned: 18.00

====

// reported Rate of increase or decrease per item
# protocol-description: GC/MS of serum sample: time from blood collection to centrifugation (Table G)
# Assay type: physicochemical, human
# reported-conditions: detection intensity relative to 1 at 15 minutes, blood collection to centrifugation, after 8 hours

Some compounds with known Rate of increase or decrease results, for comparison:
O=C(CO)[C@H](O)[C@H](O)[C@H](O)CO [Psicose] : 0.65
O[C@@H]1[C@@H](O)[C@@H]2OC[C@@H](O2)[C@H]1O [1,6-Anhydroglucose] : 0.62
NCCC(=O)O [3-Aminopropionic acid (β-alanine), 3-Aminopropionic acid] : 1.46
CCCCCCCCCCCCCC(=O)O [Myristic acid] : 1.30
O=C(O)CCC(O)C(=O)O (stereo not shown) [2-Hydroxyglutaric acid] : 2.00
OC[C@H]1O[C@H](O[C@H]2O[C@H](CO)[C@@H](O)[C@H](O)[C@H]2O)[C@H](O)[C@@H](O)[C@@H]1O [Trehalose] : 1.50

Data request: // Rate of increase or decrease lookup, key: O=C(CO)[C@@H](O)[C@H](O)CO [Xylulose]
Data returned: 1.95

Data request: // Rate of increase or decrease lookup, key: O=C(CO)[C@H](O)[C@H](O)CO [Ribulose]
Data returned: 1.72

Data request: // Rate of increase or decrease lookup, key: O=C(O)CCCC(=O)O [Glutaric acid]
Data returned: 1.39

Data request: // Rate of increase or decrease lookup, key: OC[C@@H](O)[C@@H](O)[C@@H](O)CO [Ribitol]
Data returned: 1.44

====

# protocol-description: LC/MS of blood plasma sample: time from blood collection to cooling of blood (Table E)
# Type: physicochemical, human
# reported-conditions: detection intensity relative to 1 at 1 minute or less, blood collection to cooling 5 minutes
// reported Rate of increase or decrease per item
Keep the answer to the number alone.

Some compounds with known Rate of increase or decrease results, for comparison:
O=c1[nH]cnc2nc[nH]c12 : 7.92
NCCCC(=O)O : 1.50

Data request: // Rate of increase or decrease lookup, key: C[S+](CC[C@H](N)C(=O)[O-])C[C@H]1O[C@@H](n2cnc3c(N)ncnc32)[C@H](O)[C@@H]1O (stereo partly shown)
Data returned: 1.60

Data request: // Rate of increase or decrease lookup, key: Nc1ncnc2nc[nH]c12
Data returned: 1.31

Data request: // Rate of increase or decrease lookup, key: O=C(O)[C@@H]1CCCN1
Data returned: 1.41

Data request: // Rate of increase or decrease lookup, key: N[C@@H](CCC(=O)N[C@@H](CS)C(=O)O)C(=O)O
Data returned: 1.33

Data request: // Rate of increase or decrease lookup, key: CN(C)CC(=O)O
Data returned: 0.66

====

# protocol-description: LC/MS of serum sample: number of times of freezing and thawing (Table M)
# Assay type: physicochemical, human
# reported-conditions: serum sample, LC/MS; detection intensity changed by 30% or more vs 2 times of freezing and thawing
value-type: Number of times when compound is affected (times)
Form entry: value (times) — number only.

Some compounds with known Number of times when compound is affected results, for comparison:
C[N+](C)(C)CC(O)CC(=O)[O-] (stereo not shown) : 6
N[C@@H](CCS)C(=O)O : 6
N[C@@H](CS)C(=O)O : 4

Data request: // Number of times when compound is affected lookup, key: N[C@@H](Cc1c[nH]cn1)C(=O)O
Data returned: 6

Data request: // Number of times when compound is affected lookup, key: NCC(=O)O
Data returned: 6

Data request: // Number of times when compound is affected lookup, key: O=C(O)CC(O)C(=O)O (stereo not shown)
Data returned: 10

Data request: // Number of times when compound is affected lookup, key: CN(C)CC(=O)O
Data returned: 6
